biological target: DGKα (Homo sapiens); construct: made in house; host or cells: Sf9 insect cells, baculovirus (Bac-to-Bac); assay: In vitro DGK inhibition assay, DGKα LIPGLO (extruded liposomes); format: biochemical; settings: liposome (LIPGLO) assay, 150 μM ATP, 5 nM enzyme
Sequence (P23743 whole entry): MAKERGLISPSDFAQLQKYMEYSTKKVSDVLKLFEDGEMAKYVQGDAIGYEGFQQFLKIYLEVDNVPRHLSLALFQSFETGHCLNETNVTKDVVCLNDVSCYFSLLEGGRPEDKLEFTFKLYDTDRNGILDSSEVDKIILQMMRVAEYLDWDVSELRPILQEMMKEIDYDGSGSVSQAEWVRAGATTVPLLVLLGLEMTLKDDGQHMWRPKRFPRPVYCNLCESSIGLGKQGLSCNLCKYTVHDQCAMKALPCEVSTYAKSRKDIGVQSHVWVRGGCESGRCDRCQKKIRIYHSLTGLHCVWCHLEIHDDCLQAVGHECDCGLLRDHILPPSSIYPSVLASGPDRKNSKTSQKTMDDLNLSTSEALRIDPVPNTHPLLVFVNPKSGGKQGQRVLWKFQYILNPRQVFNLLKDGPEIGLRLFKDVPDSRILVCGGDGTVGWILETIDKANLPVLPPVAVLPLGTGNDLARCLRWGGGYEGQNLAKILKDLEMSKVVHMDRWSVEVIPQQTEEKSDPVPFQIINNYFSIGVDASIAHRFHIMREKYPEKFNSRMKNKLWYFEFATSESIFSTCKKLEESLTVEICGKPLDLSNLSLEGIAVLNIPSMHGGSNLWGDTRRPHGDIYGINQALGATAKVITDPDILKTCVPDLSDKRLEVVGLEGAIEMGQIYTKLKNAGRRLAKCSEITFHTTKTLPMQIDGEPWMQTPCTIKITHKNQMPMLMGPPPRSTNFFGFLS
pIC50: −log10 of the molar value.
The entries below are paired with their reported pIC50.
Measured property: pIC50

Molecule	Reported result
COc1ccc2c(c1)c(N1CCN(Cc3cccc4ccccc34)CC1)c([N+](=O)[O-])c(=O)n2C [Example 8]	4.41
C[C@@H]1CN(c2c(C#N)c(=O)n(C)c3ccccc23)[C@@H](C)CN1C(c1ccc(F)cc1)c1ccc(F)cc1 (stereo in doubt) [Example 6]	6.15
C[C@@H]1CN(c2cc(=O)n(C)c3ccc(C#N)cc23)[C@@H](C)CN1C(c1ccc(F)cc1)c1ccc(F)cc1 (stereo in doubt) [Example 7]	5.89
Cn1c(=O)c(CO)c(N2CCN(C(c3ccccc3)c3ccccc3)CC2)c2ccccc21 [Example 11]	4.05
